The origin of these recorded values is patent US11230526B1.

# system_tested: short form of the GPR120 receptor (Homo sapiens)
# Sequence (Q5NUL3 whole entry): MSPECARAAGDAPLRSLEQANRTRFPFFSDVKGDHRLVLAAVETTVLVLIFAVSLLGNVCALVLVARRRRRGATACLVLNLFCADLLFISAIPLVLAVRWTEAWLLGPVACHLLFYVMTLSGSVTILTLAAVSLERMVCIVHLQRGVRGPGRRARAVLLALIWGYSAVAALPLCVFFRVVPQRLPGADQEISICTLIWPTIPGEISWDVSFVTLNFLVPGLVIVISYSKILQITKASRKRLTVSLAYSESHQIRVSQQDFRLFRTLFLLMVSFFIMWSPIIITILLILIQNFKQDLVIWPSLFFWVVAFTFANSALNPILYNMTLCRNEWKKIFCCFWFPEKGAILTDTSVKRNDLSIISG
# Sequence (P32121 whole entry partner): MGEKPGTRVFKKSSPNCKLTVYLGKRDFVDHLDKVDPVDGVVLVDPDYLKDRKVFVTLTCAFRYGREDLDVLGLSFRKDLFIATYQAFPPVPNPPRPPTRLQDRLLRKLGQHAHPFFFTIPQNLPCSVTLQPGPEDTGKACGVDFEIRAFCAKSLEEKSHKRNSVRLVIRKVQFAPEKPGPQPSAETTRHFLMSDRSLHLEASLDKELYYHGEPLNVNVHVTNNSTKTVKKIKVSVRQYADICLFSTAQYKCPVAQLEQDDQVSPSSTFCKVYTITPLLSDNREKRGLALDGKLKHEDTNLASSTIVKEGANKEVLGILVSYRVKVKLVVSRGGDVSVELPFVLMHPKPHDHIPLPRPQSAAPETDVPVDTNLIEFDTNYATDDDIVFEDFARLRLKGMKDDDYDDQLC
# protocol_details: Human GPR120 DiscoveRx PathHunter Beta-Arrestin assay, Procedure β-arrestin B
# Procedure: Human GPR120 DiscoveRx PathHunter® Beta-Arrestin Assay Assay Principle: […] The plates were read on an EnVision instrument, using Protocol name: Luminescence, Plate type: 384 Costar, Measurement height: 3 mm, Measurement time: 1 s, Aperture: 384 Plate aperture. The % Activity relative to the positive control was calculated using the following equation: […]
outcome_measure: pEC50
A value of pEC50 is the negative decimal logarithm of a concentration given in moles per litre.

In plain terms, Cc1cc(CCC(=O)O)ccc1OCC1=C(c2ccc(Cl)cc2)CCC(F)(F)C1 [Compound 467] has a documented pEC50 of 6.98

Next:
Entry Cc1c(CCC(=O)O)ccc(OCC2=C(c3ccc(Cl)cc3)CCC2C(F)(F)F)c1C (stereo not drawn) [Compound 12] , pEC50 reported as 7.03

Given item Cc1cc(OCC2=C(c3ccc(Cl)cc3)CCC2)ccc1CCC(=O)O [Compound 131] , the value recorded as its pEC50 is 6.25

According to the records, this compound Cc1cc(CCC(=O)O)ccc1OCC1=C(c2ccc(Cl)c(F)c2)CCC1 [Compound 159] displays pEC50 of 7.25

Note to self: pEC50 recorded for Cc1ccc(C2=C(COc3ccc(CCC(=O)O)c(C)c3C)CCC2)cc1C [Compound 106] was 6.07

Measured pEC50, Cc1ccc(C2=C(COc3ccc(CCC(=O)O)c(C)c3C)CCC2)cn1 [Compound 85] : 6.14

###

# system_tested: human GPR40 (Homo sapiens, UniProt O14842)
# Sequence (O14842 whole entry): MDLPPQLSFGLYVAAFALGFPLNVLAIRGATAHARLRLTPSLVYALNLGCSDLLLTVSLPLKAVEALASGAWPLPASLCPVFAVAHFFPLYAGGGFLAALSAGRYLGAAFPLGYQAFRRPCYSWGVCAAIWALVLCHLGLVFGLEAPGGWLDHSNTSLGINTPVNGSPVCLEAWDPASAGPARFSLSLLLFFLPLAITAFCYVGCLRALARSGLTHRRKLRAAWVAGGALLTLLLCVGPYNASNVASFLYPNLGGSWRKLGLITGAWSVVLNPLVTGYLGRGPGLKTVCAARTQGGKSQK
# protocol_details: GPR40 calcium flux assay, human GPR40
# condition_description: HEK293 cells stably expressing GPR40; table does not say human or rat
Collected pEC50 values appear next to each entry.
pEC50 here is simply -log10 of the concentration when that concentration is written in mol/L.

Quick note, pEC50 for Cc1cc(OCC2=C(c3cc(Cl)ccc3F)CCC2)c(F)cc1CCC(=O)O landed at 6.45

Record [2H]C([2H])([2H])c1ccc(C2=C(COc3cc(C)c(CCC(=O)O)cc3F)CCC2)cc1 , field pEC50: 5.63

Record O=C(O)CCc1ccc(OCC2=C(C3CCC3)CC(F)(F)C2)cc1C(F)(F)F . Reported pEC50: 7.34

Next up:
Field pEC50 (entry Cc1cc(CCC(=O)O)ccc1OCC1=C(c2ccc(C#N)s2)CCC(F)(F)C1 ) reads 5.35

###

# EC50 values compiled below
# system_tested: Human GPR120 short form (Homo sapiens, UniProt Q5NUL3)
# Construct: expressed in transfected cells
# protocol_details: Human GPR120 calcium flux assay, Procedure Calcium A (2500 cells/well)
# Assay type: cell-based

For orientation, consider the following solved cases.
Tested on Human GPR120 short form (Homo sapiens, UniProt Q5NUL3), the item COc1cc(C2=C(COc3ccc(CCC(=O)O)c(C)c3C)CCC2)ccc1C showed EC50 equal to > 5 µM

Item Cc1c(CCC(=O)O)ccc(OCC2=C(c3ccc([S+](C)[O-])cc3)CCCC2)c1C (stereo not drawn) was tested on Human GPR120 short form (Homo sapiens, UniProt Q5NUL3); the reported EC50 is > 5 µM

***
Form field, EC50 with Human GPR120 short form (Homo sapiens, UniProt Q5NUL3), item CCOc1ccc(C2=C(COc3ccc(CCC(=O)O)c(C)c3C)CCC2)cc1 : > 5 µM
